Measurement Target: PARP-1 (Homo sapiens)
Construct: Full length His6-PARP-1 and His6-SUMO-PARP-10 proteins we expressed and purified; His6 (N); made in house
Sequence (P09874 whole entry): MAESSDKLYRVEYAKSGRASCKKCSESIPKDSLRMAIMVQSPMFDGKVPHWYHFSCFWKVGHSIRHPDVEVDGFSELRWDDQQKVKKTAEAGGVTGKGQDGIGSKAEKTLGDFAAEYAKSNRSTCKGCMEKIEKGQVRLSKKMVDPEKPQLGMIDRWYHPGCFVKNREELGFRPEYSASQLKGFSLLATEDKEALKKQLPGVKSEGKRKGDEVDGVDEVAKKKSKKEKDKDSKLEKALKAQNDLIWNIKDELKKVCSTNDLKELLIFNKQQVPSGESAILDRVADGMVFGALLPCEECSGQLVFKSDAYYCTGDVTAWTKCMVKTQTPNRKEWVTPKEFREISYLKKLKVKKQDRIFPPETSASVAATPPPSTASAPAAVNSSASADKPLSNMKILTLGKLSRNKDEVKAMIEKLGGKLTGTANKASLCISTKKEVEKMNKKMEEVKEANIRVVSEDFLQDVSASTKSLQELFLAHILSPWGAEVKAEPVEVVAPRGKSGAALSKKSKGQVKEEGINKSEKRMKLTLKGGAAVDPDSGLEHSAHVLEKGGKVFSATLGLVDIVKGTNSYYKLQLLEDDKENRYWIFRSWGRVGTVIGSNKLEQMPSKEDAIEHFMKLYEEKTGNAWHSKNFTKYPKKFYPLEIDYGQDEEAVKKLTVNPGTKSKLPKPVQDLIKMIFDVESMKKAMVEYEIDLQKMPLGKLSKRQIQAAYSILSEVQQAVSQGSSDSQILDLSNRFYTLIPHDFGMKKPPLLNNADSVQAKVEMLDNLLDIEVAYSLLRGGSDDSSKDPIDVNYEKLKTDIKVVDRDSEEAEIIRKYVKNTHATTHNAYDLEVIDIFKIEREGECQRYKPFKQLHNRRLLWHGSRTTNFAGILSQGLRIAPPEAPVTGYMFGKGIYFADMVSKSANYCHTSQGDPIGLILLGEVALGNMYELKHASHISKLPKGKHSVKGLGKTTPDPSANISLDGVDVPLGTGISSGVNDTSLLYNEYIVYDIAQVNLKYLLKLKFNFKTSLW
Experimental Details: Competition labeling of PARP-1 by 2-ad-BAD
Assay type: binding
Conditions: 150 μM nucleotide, 0.3 μM 2-ad-BAD
Observable: block of 2-ad-BAD labeling of PARP-1 by nucleotides

These recorded examples may help you get a feel for the data.
Molecule	Experimental Value
NC(=O)c1ccc[n+]([C@@H]2O[C@H](COP(=O)([O-])OP(=O)(O)OC[C@H]3O[C@@H](n4cnc5c(N)ncnc54)[C@H](O)[C@@H]3O)[C@@H](O)[C@H]2O)c1 [NAD^+, Nicotinamide adenine dinucleotide]	reduced
Nc1ncnc2c1ncn2[C@@H]1O[C@H](COP(=O)(O)OP(=O)(O)OC[C@H]2OC(O)[C@H](O)[C@@H]2O)[C@@H](O)[C@H]1O (stereo partly drawn)	did not block
Nc1ncnc2c1ncn2[C@@H]1O[C@H](COP(=O)(O)OP(=O)(O)O)[C@@H](O)[C@H]1O	did not block
NC(=O)C1=CN([C@@H]2O[C@H](COP(=O)(O)OP(=O)(O)OC[C@H]3O[C@@H](n4cnc5c(N)ncnc54)[C@H](O)[C@@H]3O)[C@@H](O)[C@H]2O)C=CC1	reduced
Nc1ncnc2c1ncn2[C@@H]1O[C@H](COP(=O)(O)OP(=O)(O)OP(=O)(O)O)[C@@H](O)[C@H]1O [ATP, adenosine triphosphate]	did not block

Consider now this further molecule.
input: Look at this molecule and give its reported block of 2-ad-BAD labeling of PARP-1 by nucleotides. NC(=O)c1cccc([C@@H]2O[C@H](COP(=O)(O)OP(=O)(O)OC[C@H]3O[C@@H](n4cnc5c(N)ncnc54)[C@H](O)[C@@H]3O)[C@@H](O)[C@H]2O)c1 [BAD, benzamide adenine dinucleotide]
output: reduced

All values here come from patent US12441757B2.
